Target: IL16_1, Q14005
Sequence (Q14005 210-306): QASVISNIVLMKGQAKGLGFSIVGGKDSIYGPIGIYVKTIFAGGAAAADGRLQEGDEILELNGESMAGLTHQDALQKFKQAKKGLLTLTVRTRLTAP
Test: holdup assay
Design: key: below the threshold = too weak to quantify, mostly under pKd 3.1 to 4
Settings: plain residues with an end cap or a label only (N-terminal biotin on a linker: ado-ado)
measurement-name: pKd

Please review the following examples before continuing.
> print(dat)
                                     binder      observed.result
1  VYPNAKVELV [PDLIM4_iso2, P50479;P50479-1]  below the threshold
2               PDGQCTVTEV [RNF146, Q9NTX7]                 4.17
3               NHSSSPETTA [TRMT13, Q9NUP7]  below the threshold
4                FNSYSLTGYV [CLDN2, P57739]                  3.8

Exam item: Would you kindly share the measured pKd for GQEEQVTTRL [TRPC5, Q9UL62] ?
Marked response: below the threshold

Exam item: Also check EKKTLIGIKL [GOT1L1, Q8NHS2]
Marked response: below the threshold

Exam item: Also check LGRSTPQSEV [DGKH, Q86XP1]
Marked response: below the threshold

Exam item: Also check QPCFNKLFPL [LPXN, O60711]
Marked response: below the threshold
